Target: various mutants of kinase EGFR (BaF3 cell lines stably transfected with kinase) (Homo sapiens, UniProt P00533, T790M, form not given)
Construct: other: BaF3 cells stably transfected with EGFR Δ19Del/T790M; MTS, 48 h; other: BaF3 cell line stably transfected with EGFR Δ19Del/T790M; MTS, 48
Sequence (P00533 with tags, fused parts or gaps DEL746-750/T790M, form open): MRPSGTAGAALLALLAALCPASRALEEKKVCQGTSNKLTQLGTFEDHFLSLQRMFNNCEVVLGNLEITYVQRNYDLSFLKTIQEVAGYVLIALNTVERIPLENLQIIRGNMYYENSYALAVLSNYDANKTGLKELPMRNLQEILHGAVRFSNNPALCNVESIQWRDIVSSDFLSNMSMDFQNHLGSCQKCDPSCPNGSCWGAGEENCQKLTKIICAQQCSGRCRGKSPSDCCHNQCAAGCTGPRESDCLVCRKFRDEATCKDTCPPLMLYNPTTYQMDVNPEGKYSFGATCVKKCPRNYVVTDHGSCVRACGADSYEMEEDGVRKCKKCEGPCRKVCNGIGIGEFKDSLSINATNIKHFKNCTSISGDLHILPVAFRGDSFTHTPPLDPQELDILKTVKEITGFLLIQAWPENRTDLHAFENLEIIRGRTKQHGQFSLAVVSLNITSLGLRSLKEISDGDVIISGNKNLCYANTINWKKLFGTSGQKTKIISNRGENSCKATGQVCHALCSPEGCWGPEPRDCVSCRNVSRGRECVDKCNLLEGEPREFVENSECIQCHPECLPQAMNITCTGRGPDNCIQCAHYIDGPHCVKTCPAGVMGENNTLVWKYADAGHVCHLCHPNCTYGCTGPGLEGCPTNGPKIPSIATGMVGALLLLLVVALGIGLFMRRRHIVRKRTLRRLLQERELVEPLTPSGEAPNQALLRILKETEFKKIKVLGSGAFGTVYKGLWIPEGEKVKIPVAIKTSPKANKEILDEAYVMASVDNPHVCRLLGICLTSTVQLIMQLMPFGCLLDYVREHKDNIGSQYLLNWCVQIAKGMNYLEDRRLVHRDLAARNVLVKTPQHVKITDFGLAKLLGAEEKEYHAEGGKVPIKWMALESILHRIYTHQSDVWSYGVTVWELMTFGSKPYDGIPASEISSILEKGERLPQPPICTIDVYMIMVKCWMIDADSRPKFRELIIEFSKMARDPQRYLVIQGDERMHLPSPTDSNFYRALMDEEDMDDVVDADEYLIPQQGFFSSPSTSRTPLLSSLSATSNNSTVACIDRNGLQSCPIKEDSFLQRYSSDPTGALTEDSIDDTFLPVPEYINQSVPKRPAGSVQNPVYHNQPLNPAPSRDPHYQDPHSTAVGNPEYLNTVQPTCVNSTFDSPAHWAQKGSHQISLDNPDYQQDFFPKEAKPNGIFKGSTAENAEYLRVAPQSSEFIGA
Experiment: Growth inhibitory activity of compounds on BaF3 cell lines stably transfected with kinase (MTS, 48 h)
Format: cell-based
Details: BaF3 cell line stably transfected with EGFR Δ19Del/T790M, read-out: Δ19Del/ T790M growth inhibitory activity IC50
pIC50: −log10 of the molar value.
So I've got a bunch of molecules here, and I need their pIC50 values.

Prompt: So what's the measured pIC50 for this one? COc1cc(N2CCC(N(C)C)C2)c(C)cc1Nc1nc(Nc2ccc3nccnc3c2N(C)S(C)(=O)=O)c2[nH]ccc2n1 (centres unmarked)
Response: 5.60 to 6.30

Prompt: Form field: reported pIC50 of "COc1ccc(N2CCC(O)CC2)cc1Nc1nc(Nc2ccc3nccnc3c2N(C)S(C)(=O)=O)c2cc[nH]c2n1"
Response: 6.30 to 7.30

Prompt: Which pIC50 value belongs to "CCc1cc(Nc2ncc(C)c(Nc3ccc4nccnc4c3N(C)S(C)(=O)=O)n2)c(OC)cc1N1CCN(C)CC1" ?
Response: ≥ 7.30

Prompt: Entry under review: "CN1CCN(C2CCN(c3c(F)cc(Nc4ncc(Cl)c(Nc5ccc6nccnc6c5N(C)S(C)(=O)=O)n4)cc3F)CC2)CC1" . Reported pIC50?
Response: ≥ 7.30

Prompt: GET /values?readout=pIC50&item= "CCc1cc(Nc2ncc(OC)c(Nc3ccc4nccnc4c3N(C)S(C)(=O)=O)n2)c(OC)cc1N1CCC(N2CCN(C)CC2)CC1"
Response: ≥ 7.30

Prompt: Can you look up the measured pIC50 of CCc1cc(Nc2ncc(OC)c(Nc3ccc4nccnc4c3N(C)S(C)(=O)=O)n2)c(OC)cc1N1CCC(N(C)C)C1 (centres unmarked) for me?
Response: ≥ 7.30

Prompt: Which measured pIC50 value corresponds to "CCc1cc(Nc2ncc(CC)c(Nc3ccc4nccnc4c3N(C)S(C)(=O)=O)n2)c(OC(F)(F)F)cc1N1CCC(N2CCN(C)CC2)CC1" ?
Response: ≥ 7.30

Prompt: Suppose we examine the molecule "CCn1ccc(Nc2ncc(Br)c(Nc3ccc4nccnc4c3N(C)S(C)(=O)=O)n2)n1" ; what pIC50 value has been reported?
Response: 6.30 to 7.30

Prompt: Reported pIC50, molecule "CCc1cc(Nc2nc(Nc3ccc4nccnc4c3N(C)S(C)(=O)=O)c3[nH]ccc3n2)c(OC(F)(F)F)cc1N1CCC(N2CCN(C)CC2)CC1" : ____
Response: 6.30 to 7.30

Prompt: Entry under review: "COc1cc(N2CCC(N3CCN(C)CC3)CC2)ccc1Nc1ncc(Cl)c(Nc2ccc3nccnc3c2N(C2CC2)S(C)(=O)=O)n1" . Reported pIC50?
Response: 6.30 to 7.30

Prompt: Quick one: pIC50 of "COc1ccc(N2CCC(O)CC2)cc1Nc1nc(Nc2ccc3nccnc3c2N(C)S(C)(=O)=O)c2sccc2n1" ?
Response: 6.30 to 7.30

Just for reference, patent US20230310428A1 is where these values come from.
